Below is a list of entries, each paired with its recorded melting point value.

- CCCCNC(=O)c1csc([C@H](C)N)n1: 109 to 111 °C
- C[C@H](N)c1nc(C(=O)Nc2ccccc2)cs1: 117 to 122 °C
- COc1ccc(NC(=O)c2csc([C@H](C)N)n2)cc1: 126 to 127 °C
- COc1ccccc1NC(=O)c1csc([C@H](C)N)n1: 82 to 84 °C
- CC(=O)c1ccc(NC(=O)c2csc([C@H](C)N)n2)cc1: 139 to 141 °C

The molecule identified as C[C@H](N)c1nc(C(=O)NCc2ccccc2)cs1 registered its melting point at 64 to 67 °C

For Cc1cccc(NC(=O)c2csc([C@H](C)N)n2)c1 the molecule record lists melting point as 135 to 137 °C

For reference, reported melting point for C[C@H](N)c1nc(C(=O)Nc2cccc(Cl)c2)cs1 stands at 155 to 159 °C

Reference source for all entries: paper PMC5986738
